Here the recorded specific binding MFI is given for each entry.
Target: T1, human TIM-3 on cells (human, UniProt Q8TDQ0 22-301)
T1 construct: also called CHO-Tim3; rec CHOK1 cells expressing huTIM-3
Assay: flow cytometry, human CD14+ monocytes donor2

binder: Tim3_0033 (antibody, V domains shown) VH: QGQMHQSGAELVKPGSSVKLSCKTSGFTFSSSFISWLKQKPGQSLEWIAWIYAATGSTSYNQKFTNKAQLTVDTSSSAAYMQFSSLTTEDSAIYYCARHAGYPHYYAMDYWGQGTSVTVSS VL: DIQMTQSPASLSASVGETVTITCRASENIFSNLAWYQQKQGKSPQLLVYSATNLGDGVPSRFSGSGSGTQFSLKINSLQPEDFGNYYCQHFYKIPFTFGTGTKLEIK
specific binding MFI: 328 MFI
//
binder: Tim3_0028 (antibody, V domains shown) VH: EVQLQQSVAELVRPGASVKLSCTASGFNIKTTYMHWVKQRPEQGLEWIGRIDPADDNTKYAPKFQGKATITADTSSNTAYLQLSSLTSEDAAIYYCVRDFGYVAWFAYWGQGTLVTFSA VL: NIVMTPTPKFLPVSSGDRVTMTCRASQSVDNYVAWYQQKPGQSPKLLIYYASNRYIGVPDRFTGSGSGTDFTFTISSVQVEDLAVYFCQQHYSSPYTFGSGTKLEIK
specific binding MFI: 950 MFI
//
binder: Tim3_0016 variant (Tim3_0018) (antibody, V domains shown, also called TIM3-0016 variant (0018); aTim3 0018) VH: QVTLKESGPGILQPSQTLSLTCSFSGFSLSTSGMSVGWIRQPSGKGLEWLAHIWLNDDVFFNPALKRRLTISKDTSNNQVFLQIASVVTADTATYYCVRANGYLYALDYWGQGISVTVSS VL: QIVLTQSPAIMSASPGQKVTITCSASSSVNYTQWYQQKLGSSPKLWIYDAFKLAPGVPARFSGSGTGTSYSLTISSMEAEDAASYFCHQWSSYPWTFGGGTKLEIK
specific binding MFI: 1820 MFI
//
binder: Tim3_0038 (antibody, V domains shown) VH: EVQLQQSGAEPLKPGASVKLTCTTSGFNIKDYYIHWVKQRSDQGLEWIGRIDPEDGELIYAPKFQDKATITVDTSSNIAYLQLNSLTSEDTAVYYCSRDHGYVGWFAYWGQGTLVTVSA VL: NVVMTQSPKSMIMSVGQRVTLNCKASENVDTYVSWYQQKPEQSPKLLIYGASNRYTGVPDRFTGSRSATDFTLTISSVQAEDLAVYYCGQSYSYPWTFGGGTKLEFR
specific binding MFI: 1370 MFI
//
binder: Tim3_0021 (antibody, V domains shown) VH: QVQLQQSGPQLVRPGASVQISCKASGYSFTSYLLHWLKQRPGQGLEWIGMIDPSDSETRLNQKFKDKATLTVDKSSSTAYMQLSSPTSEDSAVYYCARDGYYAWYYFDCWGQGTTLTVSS VL: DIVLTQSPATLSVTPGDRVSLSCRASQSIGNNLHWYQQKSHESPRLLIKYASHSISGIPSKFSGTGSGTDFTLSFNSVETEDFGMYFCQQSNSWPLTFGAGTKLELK
specific binding MFI: 951 MFI
//
binder: Tim3_0016 (antibody, V domains shown, also called clone 0016) VH: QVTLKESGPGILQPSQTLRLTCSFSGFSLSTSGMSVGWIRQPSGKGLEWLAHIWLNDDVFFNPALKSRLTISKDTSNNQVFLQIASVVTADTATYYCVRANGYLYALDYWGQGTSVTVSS VL: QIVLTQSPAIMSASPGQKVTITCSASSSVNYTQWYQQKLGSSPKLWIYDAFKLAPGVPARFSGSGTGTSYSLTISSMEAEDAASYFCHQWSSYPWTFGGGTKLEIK
specific binding MFI: 1630 MFI
